assay: Observed pseudo-first order rate constant
QUANTITY KIND: K obs (min⁻¹)

# MOLECULE, QUANTITY UNIT, OBS VALUE
measured = [
    ("CC(=O)Oc1ccccc1C(=O)OCC(=O)N(C)C", "min⁻¹", 0.209),
    ("CSCOC(=O)c1ccccc1OC(C)=O", "min⁻¹", 0.465),
    ("CC(=O)Oc1ccccc1C(=O)Oc1ccccc1C(=O)O [DIPLOSALSALATE]", "min⁻¹", 0.0094),
    ("CC(=O)Oc1ccccc1C(=O)OCCN(C)C.Cl", "min⁻¹", 2.65),
    ("CC(=O)Oc1ccccc1C(=O)OC[S+](C)[O-] (stereo not drawn)", "min⁻¹", 0.207),
    ("CC(=O)Oc1ccccc1C(=O)OCC(=O)N(C1CCCCC1)C1CCCCC1", "min⁻¹", 0.0335),
]

a. CC(=O)Oc1ccccc1C(=O)OCC(=O)N(C)CC(N)=O
b. CC(=O)Oc1ccccc1C(=O)OCC(=O)NCC(N)=O
Lookup: Could you tell me which of these two has the smaller K obs figure? First: a Second: b Give the label under which the chosen entry appears.
Found: a

Data credit: ChEMBL document CHEMBL1124435
